Measured Target: human CAR LBD protein (Homo sapiens, UniProt Q14994)
Sequence (Q14994 103-348 isoform Q14994-2): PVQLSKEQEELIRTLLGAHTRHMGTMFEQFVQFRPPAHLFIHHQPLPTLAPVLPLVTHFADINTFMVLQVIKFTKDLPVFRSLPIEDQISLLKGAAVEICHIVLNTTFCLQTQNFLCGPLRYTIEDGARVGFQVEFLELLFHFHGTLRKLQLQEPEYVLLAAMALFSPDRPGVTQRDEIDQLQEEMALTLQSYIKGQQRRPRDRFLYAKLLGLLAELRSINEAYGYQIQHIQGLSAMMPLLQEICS
Protocol Details: Fluorescence Resonance Energy Transfer (FRET) Ligand Sensing Assay: CAR LBD / SRC-1 coactivator peptide interaction
Measurement Conditions: dose response curves with purified CAR LBD protein; reduction of basal CAR LBD/SRC-1 peptide FRET signal (inverse agonist)
Measure: pEC50
One number for each entry, as −log10 of the molar value.

Asked: Form field: pEC50 recorded for NC(=O)c1ccc2nc(NC(c3ccccc3)c3ccccc3)n(CCc3ccccc3)c2c1 with human CAR LBD protein (Homo sapiens, UniProt Q14994) (enter value)
Given back: 7.82
